System: S. aureus DSM 20231;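 also: first quartile when negative (synergy) and third quartile when positive (antagonism)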
assay.comment: Bliss interaction score (quartile over a dose matrix) (fitness difference); higher = more antagonism (negative = synergy)
Each item that follows carries a reported Bliss interaction score.
// return a plain number; no unit text

compound	study.target	Bliss interaction score
CC(=O)Oc1cccc2c1C(=O)c1c(OC(C)=O)cc(C(=O)O)cc1C2=O [Diacerein] + CC(=O)NC[C@H]1CN(c2ccc(N3CCOCC3)c(F)c2)C(=O)O1 [Linezolid]	S. aureus DSM 20231	-0.29
CC(=O)Oc1ccccc1C(=O)O [Acetylsalicylicacid] + CC[C@H]1OC(=O)[C@H](C)[C@@H](O[C@H]2C[C@@](C)(OC)[C@@H](O)[C@H](C)O2)[C@H](C)[C@@H](O[C@@H]2O[C@H](C)C[C@H](N(C)C)[C@H]2O)[C@](C)(O)C[C@@H](C)C(=O)[C@H](C)[C@@H](O)[C@]1(C)O [Erythromycin]	S. aureus DSM 20231	0.1
CO/N=C(\C(=O)N[C@@H]1C(=O)N2C(C(=O)O)=C(COC(C)=O)CS[C@H]12)c1csc(N)n1 [Cefotaxime] + CN[C@H](CC(C)C)C(=O)N[C@H]1C(=O)N[C@@H](CC(N)=O)C(=O)N[C@H]2C(=O)N[C@H]3C(=O)N[C@H](C(=O)N[C@H](C(=O)O)c4cc(O)cc(O)c4-c4cc3ccc4O)[C@H](O)c3ccc(c(Cl)c3)Oc3cc2cc(c3O[C@@H]2O[C@H](CO)[C@@H](O)[C@H](O)[C@H]2O[C@H]2C[C@](C)(N)[C@H](O)[C@H](C)O2)Oc2ccc(cc2Cl)[C@H]1O [Vancomycin]	S. aureus DSM 20231	-0.0428
CC(C)c1c(C(=O)Nc2ccccc2)c(-c2ccccc2)c(-c2ccc(F)cc2)n1CC[C@@H](O)C[C@@H](O)CC(=O)O [Atorvastatin] + CO[C@@]12[C@H](COC(N)=O)C3=C(C(=O)C(C)=C(N)C3=O)N1C[C@@H]1N[C@@H]12 [MitomycinC]	S. aureus DSM 20231	0.187

Now for another entry.
Notebook: C[C@@H]1O[C@@H]1P(=O)(O)O [Fosfomycin] + Cc1cc(NS(=O)(=O)c2ccc(N)cc2)no1 [Sulfamethoxazol] , Bliss interaction score read as -0.0688

----------
Tested on: S. pneumoniae D39V;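 also: OD595 on entry to stationary phase over no-drug wells; at most 1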
assay.comment: fitness (endpoint OD595 vs no drug) (fraction); higher = more growth
experimental.conditions: first compound 0.5 µg/mL; partner 5 µg/mL
reported.property: fitness

Reported fitness (S. pneumoniae D39V) for entry O=C(O)c1cn(C2CC2)c2cc(N3CCNCC3)c(F)cc2c1=O [Ciprofloxacin] + Cc1ncc([N+](=O)[O-])n1CCO [Metronidazole] is 0.81

Field fitness (S. pneumoniae D39V), entry COc1cccc2c1C(=O)c1c(O)c3c(c(O)c1C2=O)C[C@@](O)(C(=O)CO)C[C@@H]3O[C@H]1C[C@H](N)[C@H](O)[C@H](C)O1 [Doxorubicin] + C[C@@H]1O[C@@H]1P(=O)(O)O [Fosfomycin] : 0.646

COc1cccc2c1C(=O)c1c(O)c3c(c(O)c1C2=O)C[C@@](O)(C(=O)CO)C[C@@H]3O[C@H]1C[C@H](N)[C@H](O)[C@H](C)O1 [Doxorubicin] + Clc1ccc(COC(Cn2ccnc2)c2ccc(Cl)cc2Cl)c(Cl)c1 [Miconazole] tested on S. pneumoniae D39V gave fitness: 0.983

Entry O=C(O)c1cn(C2CC2)c2cc(N3CCNCC3)c(F)cc2c1=O [Ciprofloxacin] + C[C@@H]1O[C@@H]1P(=O)(O)O [Fosfomycin] under S. pneumoniae D39V had fitness of 0.42

Each recorded value in this set is attributed to the supplement of paper PMC10627819.
